The values you see were collected from paper PMC5500991.

Entries and their melting point

Worked cases, melting point given:
{"smiles": "CN1Cc2cc(-c3ccc(-c4cncc(NS(=O)(=O)c5ccccc5F)c4)s3)ccc2C1=O", "result.type": "melting point", "readout.value": "289 to 292 °C"}
{"smiles": "CN1Cc2cc(-c3ccc(-c4cncc(NS(=O)(=O)c5cccnc5)c4)s3)ccc2C1=O", "result.type": "melting point", "readout.value": "283 to 286 °C"}
{"smiles": "CN1Cc2cc(-c3ccc(-c4cncc(NS(=O)(=O)c5ccc(Cl)cc5)c4)s3)ccc2C1=O", "result.type": "melting point", "readout.value": "281 to 284 °C"}

Param item = CN1Cc2cc(-c3ccc(-c4cncc(NS(=O)(=O)c5ccccc5)c4)s3)ccc2C1=O ; retrieve measured melting point.
300 to 303 °C

Param item = CN1Cc2cc(-c3ccc(-c4cncc(NS(=O)(=O)c5ccc(Cl)c(Cl)c5)c4)s3)ccc2C1=O ; retrieve measured melting point.
256 to 259 °C

Param item = CN1Cc2cc(-c3ccc(-c4cncc(NS(=O)(=O)c5ccccc5OC(F)(F)F)c4)s3)ccc2C1=O ; retrieve measured melting point.
251 to 254 °C

###

# assay.name: In vivo plasma pharmacokinetics in mice
# condition.notes: mouse plasma, 10 mg/kg i.p. in 20% hydroxypropyl-β-cyclodextrin
result.type: Cmax (µM)

(P) CN1Cc2cc(-c3ccc(-c4cncc(NS(=O)(=O)c5ccccc5[N+](=O)[O-])c4)s3)ccc2C1=O
(Q) CN1Cc2cc(-c3ccc(-c4cncc(NS(=O)(=O)c5ccc([N+](=O)[O-])cc5)c4)s3)ccc2C1=O
Please compare: P and Q . Report which one has the smaller Cmax value. Give the chosen item's label as your response.
Q
(Q: 64 µM, P: 105 µM)

###

# assay.name: Toxicity to KHYG1 NK cells (Trypan blue exclusion)
# Type: cell-based, human
# condition.notes: human, viability of KHYG1 NK cells after 24 h, n = 3
result.type: viability at 24 h, 10 µM (%)
Report the value in % with no unit label.

{"molecule": "CN1Cc2cc(-c3ccc(-c4cncc(NS(=O)(=O)c5c(F)cc(F)cc5F)c4)s3)ccc2C1=O [Compound 26]", "result.type": "viability at 24 h, 10 µM", "readout.value": 95.1}
{"molecule": "CN1Cc2cc(-c3ccc(-c4cc(NS(=O)(=O)c5ccccn5)ccc4F)s3)ccc2C1=O [Compound 17]", "result.type": "viability at 24 h, 10 µM", "readout.value": 91.4}
{"molecule": "CN1Cc2cc(-c3ccc(-c4cncc(NS(=O)(=O)c5ccccc5C(F)(F)F)c4)s3)ccc2C1=O [Compound 44]", "result.type": "viability at 24 h, 10 µM", "readout.value": 100}

Here is another molecule to look at.
Param item = CN1Cc2cc(-c3ccc(-c4cncc(NS(=O)(=O)c5ccc(C#N)cc5)c4)s3)ccc2C1=O [Compound 50] ; retrieve measured viability at 24 h, 10 µM.
99.3

###

# assay.name: Microsome stability, rat
# Type: in vitro ADME
# condition.notes: parent (as sodium salt) remaining after 30 min, rat microsomes
result.type: Microsome Stability (%) Rat

Worked cases, Microsome Stability (%) Rat given:
{"smiles": "CN1Cc2cc(-c3ccc(-c4cncc(NS(=O)(=O)c5cccc(C(F)(F)F)c5)c4)s3)ccc2C1=O", "readout.units": "%", "Microsome Stability (%) Rat": 80}
{"smiles": "CN1Cc2cc(-c3ccc(-c4cncc(NS(=O)(=O)c5ccc(C#N)cc5)c4)s3)ccc2C1=O", "readout.units": "%", "Microsome Stability (%) Rat": 64}
{"smiles": "CN1Cc2cc(-c3ccc(-c4cncc(NS(=O)(=O)c5c(F)cc(F)cc5F)c4)s3)ccc2C1=O", "readout.units": "%", "Microsome Stability (%) Rat": 83}
{"smiles": "CN1Cc2cc(-c3ccc(-c4cnc(Cl)c(NS(=O)(=O)c5ccc(F)cc5F)c4)s3)ccc2C1=O", "readout.units": "%", "Microsome Stability (%) Rat": 99}

(1) CN1Cc2cc(-c3ccc(-c4cncc(NS(=O)(=O)c5ccc([N+](=O)[O-])cc5)c4)s3)ccc2C1=O
(2) CN1Cc2cc(-c3ccc(-c4cncc(NS(=O)(=O)c5ccccc5C(F)(F)F)c4)s3)ccc2C1=O
Please compare: 1 and 2 . Report which one has the smaller Microsome Stability (%) Rat value. Give the chosen item's label as your response.
2
(2: 49%, 1: 72%)
